Target protein (sequence): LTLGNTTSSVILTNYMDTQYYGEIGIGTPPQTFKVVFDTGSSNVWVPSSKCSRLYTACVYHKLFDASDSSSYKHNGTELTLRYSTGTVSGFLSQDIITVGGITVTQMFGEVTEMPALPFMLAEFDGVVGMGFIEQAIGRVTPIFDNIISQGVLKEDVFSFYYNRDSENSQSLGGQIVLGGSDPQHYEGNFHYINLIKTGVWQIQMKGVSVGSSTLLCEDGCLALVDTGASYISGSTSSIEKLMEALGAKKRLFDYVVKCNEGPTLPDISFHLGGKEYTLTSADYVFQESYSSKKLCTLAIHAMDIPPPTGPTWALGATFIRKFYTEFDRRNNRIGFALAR
pIC50: −log10 of the molar value.
measured-parameter: pIC50

molecule="COc1ccccc1COCCCOc1ccc([C@H]2CCNC[C@@H]2OCc2ccc3c(c2)N(CC#N)CCC3)cc1 [G]" endpoint_result=10.15
molecule="COc1ccccc1COCCCOc1ccc([C@H]2CCNC[C@@H]2OCc2ccc3c(c2)N(CCNC(N)=O)CCC3)cc1 [J]" endpoint_result=10.05
molecule="COC(=O)CN1CCCc2ccc(CO[C@H]3CNCC[C@@H]3c3ccc(OCCCOCc4ccccc4OC)cc3)cc21 [D]" endpoint_result=10.70
molecule="CCOC(=O)CN1CCCc2ccc(CO[C@H]3CNCC[C@@H]3c3ccc(OCCCOCc4ccccc4OC)cc3)cc21 [B]" endpoint_result=10.30
